Experiment: Binding affinity to 5'-dabcyl/3'-fluorescein labeled duplex DNA (unknown origin) assessed as change in melting temperature at 10 uM by fluorescence assay
OUTCOME MEASURE: ΔTm (°C)
Give the value in °C but do not write °C after it.

Reference set, count: 5
COMPOUND STRUCTURE | READOUT NUMBER
CN(C)CCNc1nc2ccccc2c2nc3ccccc3nc12 | 4.3
CN(C)CCCCn1c(=O)c2nc3ccccc3nc2c2ccccc21 | 0.9
CN(C)CCCOc1nc2ccccc2c2nc3ccccc3nc12 | 0.5
CN(C)CCCNc1nc2ccccc2c2nc3ccccc3nc12 | 2.2
c1ccc2nc3c(nc2c1)c(NCCN1CCOCC1)nc1ccccc13 | 0

I am curious: what ΔTm value has been reported for CN(C)CCSc1nc2ccccc2c2nc3ccccc3nc12 ? 4.2

I am curious: what ΔTm value has been reported for CCN(CC)CCCNc1nc2ccccc2c2nc3ccccc3nc12 ? 1.5

// lookup ΔTm for CN(CCCCCNc1nc2ccccc2c2nc3ccccc3nc12)Cc1ccccc1 0

If you can, please state the reported ΔTm value of CN(C)CCCCNc1nc2ccccc2c2nc3ccccc3nc12 . 4.2

Given the molecule CCN(CC)CCOc1nc2ccccc2c2nc3ccccc3nc12 , what is its reported ΔTm? 0.1

Value lookup for ΔTm; key = Cc1cc2c(=O)n(CCCN(C)C)c3ccccc3c2nn1 0.1

What value of ΔTm has been recorded for this entry: c1ccc2nc3c(nc2c1)c(NCCN1CCCCC1)nc1ccccc13 1.8
